Data credit: patent US20240262795A1

# TARGET: Ba/F3 cell lines stably expressing human FLT3-ITD-F691L (Homo sapiens, UniProt P36888, F691L, cells depend on it, form not given)
# Construct: Ba/F3-FLT3-ITD-F691L Relative IC50
# EXPERIMENT_DESCRIPTION: FLT3 mutant assay, cell viability, Ba/F3-FLT3-ITD-F691L
# Format: cell-based, mouse
# CONDITION_SUMMARY: IC50 (3 days), CellTiter-Glo; read-out: Ba/F3-FLT3-ITD-F691L Relative IC50
Listing: GI50 of selected compounds
QUANTITY_NAME: GI50

- CCc1nc(C(N)=O)c(Nc2cccc([C@@H](C)CNC(=O)CN(C)C(=O)/C=C/CN3CCC3)c2)nc1C1CC1 [Compound 506]: 1 to 10 nM
- CCc1nc(C(N)=O)c(Nc2ccnc(CCNC(=O)[C@H](C)N(C)C(=O)/C=C/CN(C)C)c2)nc1N(C)C(C)C [Compound 605]: 10 to 100 nM
- CCc1nc(C(N)=O)c(Nc2cccc(CCNC(=O)CN(C)C(=O)/C=C/CN3CCC3)c2)nc1OC(C)C [Compound 603]: 10 to 100 nM
- CCCc1nc(Nc2cccc([C@@H](C)CNC(=O)CN(C)C(=O)/C=C/CN3CCC3)c2)c(C(N)=O)nc1CC [Compound 507]: 1 to 10 nM
- CCc1nc(C(N)=O)c(Nc2cccc(CCNC(=O)CN(C)C(=O)/C=C/CN(C)C)c2)nc1C1CC1 [Compound 219]: 1 to 10 nM
- Cc1nc(C(N)=O)c(Nc2cccc(CCNC(=O)[C@H](C)N(C)C(=O)/C=C/CN(C)C)c2)nc1N(C)C(C)C [Compound 232]: 1 to 10 nM
- CCc1nc(C(N)=O)c(Nc2cccc(CCNC(=O)CN(C)C(=O)/C=C/CN3CCC3)c2)nc1N(C)CC [Compound 516A]: 1 to 10 nM
- Cc1nc(C(N)=O)c(Nc2cccc(CCNC(=O)CN(C)C(=O)/C=C/CN(C)C)c2)nc1N(C)C(C)C [Compound 250]: 1 to 10 nM
- CCc1nc(C(N)=O)c(Nc2cccc([C@@H](C)CNC(=O)CN(C)C(=O)/C=C/CN3CCC3)c2)nc1N(C)CC [Compound 518]: 1 to 10 nM
- CCc1nc(C(N)=O)c(Nc2cccc(CCNC(=O)[C@H](C)N(C)C(=O)/C=C/CNC)c2)nc1N(C)C(C)C [Compound 307]: 10 to 100 nM
- CCc1nc(C(N)=O)c(Nc2cccc([C@@H](C)CNC(=O)CN(C)C(=O)/C=C/CN(C)C)c2)nc1C1CC1 [Compound 504]: 1 to 10 nM
- CCc1nc(C(N)=O)c(Nc2cccc(CCNC(=O)CN(C)C(=O)/C=C/CN(C)C)c2)nc1N(C)CC [Compound 252]: 1 to 10 nM
- CCOc1nc(Nc2cccc(CCNC(=O)CN(C)C(=O)/C=C/CN3CCC3)c2)c(C(N)=O)nc1CC [Compound 602]: 1 to 10 nM
- CCc1nc(C(N)=O)c(Nc2ccnc(CCNC(=O)[C@H](C)N(C)C(=O)/C=C/CN(C)C)c2)nc1C1CC1 [Compound 310]: 10 to 100 nM
